Listing of recorded inhibition at 10 µM by entry.
# measurement target: BTK (Homo sapiens)
# assay protocol: biochemical
# details: read-out: BTK inhibition (%), 0.75 uM BTK, […] probe 3l, 15 min preincubation
Answer in %, number only, no unit symbol.

// worked examples, inhibition at 10 µM included
CC(c1cc2ccccc2s1)N(O)C(N)=O (centres unmarked) ... -0.7
COc1cc(C(=O)NS(=O)(=O)c2ccccc2C)ccc1Cc1cn(C)c2ccc(NC(=O)OC3CCCC3)cc12 ... 47.6
CC1=NCC[C@@H](C(=O)O)N1 ... -13.6

Memo: COc1ccccc1 , reported inhibition at 10 µM: -14.7

Memo: CCOc1ccccc1O[C@H](c1ccccc1)[C@H]1CNCCO1 , reported inhibition at 10 µM: -7

====

Listing of recorded inhibition at 10 µM by entry.
# measurement target: BTK (Homo sapiens, UniProt Q06187)
# Sequence (Q06187 402-655 limits assumed): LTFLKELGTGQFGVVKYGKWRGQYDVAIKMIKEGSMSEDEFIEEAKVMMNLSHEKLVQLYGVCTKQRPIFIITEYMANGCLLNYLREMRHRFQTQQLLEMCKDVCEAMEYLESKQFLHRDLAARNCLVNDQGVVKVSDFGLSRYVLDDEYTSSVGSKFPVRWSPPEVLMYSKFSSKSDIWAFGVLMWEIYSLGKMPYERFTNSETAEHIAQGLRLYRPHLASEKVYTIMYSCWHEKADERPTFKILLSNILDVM
# assay protocol: biochemical
# details: read-out: BTK inhibition (%), 0.75 uM BTK, […] probe 3l, 15 min preincubation
Answer in %, number only, no unit symbol.

O=CC[C@@H](O)[C@H](O)[C@H](O)CO ... 5.4
CC(C)=CCC[C@](C)(O)[C@H]1CC[C@]2(C)[C@@H]1[C@H](O)C[C@@H]1[C@@]3(C)CC[C@H](O[C@@H]4O[C@H](CO)[C@@H](O)[C@H](O)[C@H]4O)C(C)(C)[C@@H]3CC[C@]12C ... 7.7
CSCC1CN(/N=C/c2ccc([N+](=O)[O-])o2)C(=O)O1 (centres unmarked) ... 20.7
CC(=O)OC(C)C(C)C(=O)OC[C@@]12[C@H]3C[C@]4(C)C(=CC[C@@H]5[C@@]6(C)CC[C@H](O[C@@H]7O[C@H](C(=O)O)[C@@H](O[C@@H]8O[C@H](CO)[C@@H](O)[C@H](O)[C@H]8O)[C@H](O)[C@H]7O[C@@H]7OC[C@@H](O)[C@H](O)[C@H]7O)[C@@](C)(CO)[C@@H]6CC[C@]54C)[C@@H]1CC(C)(C)[C@H](O3)[C@@H]2O (some centres unmarked) ... 5.1
CC1(C)S[C@@H]2[C@H](NC(=O)[C@H](C(=O)O)c3ccsc3)C(=O)N2[C@H]1C(=O)O ... -1.6
COC(=O)c1ccc(O)c(OC)c1 ... -12.5
CC(C)=CCC[C@](C)(O)[C@H]1CC[C@]2(C)[C@@H]1[C@H](O)C[C@@H]1[C@@]3(C)CC[C@H](O)C(C)(C)[C@@H]3[C@@H](O)C[C@]12C ... 17.9
COc1cc2c(Oc3ccc4[nH]c(C)cc4c3F)ccnc2cc1OCC1(N)CC1 ... 39.4
OC[C@H]1O[C@@H](OCCc2ccc(O)cc2)[C@H](O)[C@@H](O)[C@@H]1O ... -13.2
C#C[C@]1(O)CC[C@H]2[C@@H]3CCc4cc(O)ccc4[C@H]3CC[C@@]21C ... 26.5

Memo: Cc1cc(=O)n(-c2ccccc2)n1C , reported inhibition at 10 µM: 13.8

Memo: Oc1c(Cl)cc(Cl)c2cccnc12 , reported inhibition at 10 µM: -0.8

Memo: CC(C)Nc1cc(-c2c[nH]c(C(=O)N[C@H](CO)c3cccc(Cl)c3)c2)c(Cl)cn1 , reported inhibition at 10 µM: 78.6

Memo: O=C(O)c1cc(C(=O)O)c(C(=O)N(Cc2cccc(Oc3ccccc3)c2)[C@H]2CCCc3ccccc32)cc1C(=O)O , reported inhibition at 10 µM: 13.1

Memo: COc1ccc(-c2oc3c(CC=C(C)C)c(O)cc(O)c3c(=O)c2O)cc1 , reported inhibition at 10 µM: 3.9

Memo: CN[C@@H](C)C(=O)N[C@H](C(=O)N1CCC[C@H]1c1nc(C(=O)c2ccc(F)cc2)cs1)C1CCCCC1 , reported inhibition at 10 µM: -11.6

Memo: O=C(NC(Cc1cc(=O)[nH]c2ccccc12)C(=O)O)c1ccc(Cl)cc1 (centres unmarked) , reported inhibition at 10 µM: 4.7

Memo: O=C(NCc1ccc(Oc2ccccc2)cc1)c1nc(-c2cc(Br)c(O)c(Br)c2)no1 , reported inhibition at 10 µM: 94.2

Memo: COC(=O)[C@H](CCSC)NC(=O)c1ccc(NC[C@@H](N)CS)cc1-c1ccccc1 , reported inhibition at 10 µM: -57.9

Memo: CCC[C@@H]1C[C@@H](C(=O)N[C@@H]([C@H]2O[C@H](SC)[C@H](O)[C@@H](O)[C@H]2O)[C@@H](C)O)N(C)C1 , reported inhibition at 10 µM: -4.7
